Taken from patent US20240308960A1.

- systemUnderTest: Human orexin receptor type 2 (Homo sapiens, UniProt O43614)
- Sequence (O43614 whole entry): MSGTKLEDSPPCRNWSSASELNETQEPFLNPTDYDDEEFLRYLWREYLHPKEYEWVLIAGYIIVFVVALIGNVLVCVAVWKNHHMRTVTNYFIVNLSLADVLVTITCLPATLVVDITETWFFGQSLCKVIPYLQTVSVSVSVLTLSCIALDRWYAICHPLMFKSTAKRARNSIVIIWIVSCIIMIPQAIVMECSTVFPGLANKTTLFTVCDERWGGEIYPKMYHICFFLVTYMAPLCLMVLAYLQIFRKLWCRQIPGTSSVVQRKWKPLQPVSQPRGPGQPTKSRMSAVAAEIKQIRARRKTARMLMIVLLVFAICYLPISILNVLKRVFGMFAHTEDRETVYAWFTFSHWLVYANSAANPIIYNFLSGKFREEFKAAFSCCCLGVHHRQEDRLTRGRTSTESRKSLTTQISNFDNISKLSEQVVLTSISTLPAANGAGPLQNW
- testName: Test Example 1: agonist activity for orexin receptor type 2 (aequorin luminescence, intracellular calcium mobilization)
- conditionNotes: compound 10 μm; CHO cells transiently expressing human orexin receptor type 2 and apoaequorin; relative percentage of luminescence for the luminescence (100%) of Orexin A (100 μM)
readoutKind: Agonist Activity (%)
Give the number; % is assumed, so skip it.

{"molecule": "CCN1C[C@@H]2C[C@H]1CN2c1cccc(F)c1NC(=O)N1CCC(C)(c2noc(C3CC3)n2)CC1 [Example 149]", "numericValue": 146}
{"molecule": "Cc1onc(C2(C)CCN(C(=O)Nc3c(Cl)cccc3N3CCN(C(C)C)CC3)CC2)c1Cl [Example 90]", "numericValue": 164}
{"molecule": "CC(C)N1CCN(c2cccc(Cl)c2NC(=O)N2CCC(C)(c3noc(C(F)(F)F)n3)CC2)CC1 [Example 86]", "numericValue": 138}
{"molecule": "COc1cccc(N2CCN(C(C)C)CC2)c1NC(=O)N1CCC(C)(c2noc(C(C)C)n2)CC1 [Example 21]", "numericValue": 156}
{"molecule": "Cc1ccc(C2CCN(C(=O)Nc3c(Cl)cccc3C3=CCN(C(C)C)CC3)CC2)cc1 [Example 132]", "numericValue": 171}

*Q* // lookup Agonist Activity (%) for Cc1ccc(C2CCN(C(=O)Nc3c(F)cccc3C3CCN(C(C)CF)CC3)CC2)cc1 (centres unmarked) [Example 137]
*A* 126

*Q* // lookup Agonist Activity (%) for Cc1ccc(C2CCN(C(=O)Nc3c(C)cccc3N3CCN(C(C)C)CC3)CC2)cc1 [Example 17]
*A* 133

*Q* // lookup Agonist Activity (%) for CC(C)N1CCC(c2cccc(Cl)c2NC(=O)N2CCC(C)(c3noc(C4CC4)n3)CC2)CC1 [Example 145]
*A* 148

---

- systemUnderTest: UniProt O43614
- testName: Test Example 1: agonist activity for orexin receptor type 2 (aequorin luminescence, intracellular calcium mobilization)
- conditionNotes: compound 10 μm; CHO cells transiently expressing human orexin receptor type 2 and apoaequorin; relative percentage of luminescence for the luminescence (100%) of Orexin A (100 μM)
Recorded Agonist Activity (%) for the following compounds
Give the number; % is assumed, so skip it.

Before answering, review these 6 worked examples.
{"compound": "COc1cccc(N2CCN(C(C)C)CC2)c1NC(=O)N1CCC(c2ccc(C(F)(F)F)cc2)CC1 [Example 15]", "unitOfMeasurement": "%", "Agonist Activity (%)": 101}
{"compound": "CC(C)N1CCN(c2cccc(Cl)c2NC(=O)N2CCC(C)(c3noc(CC4CC4)n3)CC2)CC1 [Example 105]", "unitOfMeasurement": "%", "Agonist Activity (%)": 165}
{"compound": "CC(C)N1CCN(c2cccc(Cl)c2NC(=O)N2CCC(C)(c3noc(CC(F)(F)F)n3)CC2)CC1 [Example 119]", "unitOfMeasurement": "%", "Agonist Activity (%)": 154}
{"compound": "CC(C)N1CCN(c2ccccc2NC(=O)N2CCC(C)(c3nc(-c4cccnc4)no3)CC2)CC1 [Example 13]", "unitOfMeasurement": "%", "Agonist Activity (%)": 99}
{"compound": "Cc1noc(C2(C)CCN(C(=O)Nc3ccccc3N3CCN(C(C)C)CC3)CC2)n1 [Example 162]", "unitOfMeasurement": "%", "Agonist Activity (%)": 100}
{"compound": "CC(C)N1CCN(c2cccc(Cl)c2NC(=O)N2CCC(C)(c3noc(C4(F)CC4)n3)CC2)CC1 [Example 109]", "unitOfMeasurement": "%", "Agonist Activity (%)": 161}

*Q* // lookup Agonist Activity (%) for CC(C)c1ncc(-c2cccc(F)c2NC(=O)N2CCC(C)(c3noc(C4CC4)n3)CC2)cn1 [Example 72]
*A* 144

*Q* // lookup Agonist Activity (%) for CC(C)N1CCN(c2cccc(Cl)c2NC(=O)N2CCC(C)(c3noc(C4CC(F)(F)C4)n3)CC2)CC1 [Example 76]
*A* 148

*Q* // lookup Agonist Activity (%) for Cc1ccc(C2CCN(C(=O)Nc3c(Cl)cccc3C3CCN(C(C)C)CC3)CC2)cc1 [Example 133]
*A* 156

*Q* // lookup Agonist Activity (%) for CC(C)N1CC(Oc2cccc(Cl)c2NC(=O)N2CCC(C)(c3noc(C4CC4)n3)CC2)C1 [Example 160]
*A* 141

*Q* // lookup Agonist Activity (%) for CCN1CCCN(c2ccccc2NC(=O)N2CCC(C)(c3noc(C4CC4)n3)CC2)CC1 [Example 156]
*A* 38

*Q* // lookup Agonist Activity (%) for CCCN1CCCN(c2ccccc2NC(=O)N2CCC(C)(c3noc(C4CC4)n3)CC2)CC1 [Example 157]
*A* 94

*Q* // lookup Agonist Activity (%) for COc1cccc(C2=CCN(C(C)C)CC2)c1NC(=O)N1CCC(c2ccc(C)cc2)CC1 [Example 47]
*A* 165

*Q* // lookup Agonist Activity (%) for CC(C)N1CCN(c2cccc(Cl)c2NC(=O)N2CCC(C)(c3noc(C4CCCC4)n3)CC2)CC1 [Example 74]
*A* 145

*Q* // lookup Agonist Activity (%) for Cc1cc(C2(C)CCN(C(=O)Nc3c(F)cccc3N3CCN(C(C)C)CC3)CC2)no1 [Example 85]
*A* 145

---

Recorded Agonist Activity (%) for the following compounds
- systemUnderTest: Human orexin receptor type 2 (Homo sapiens, UniProt O43614)
- testName: Test Example 1: agonist activity for orexin receptor type 2 (aequorin luminescence, intracellular calcium mobilization)
- conditionNotes: compound 10 μm; CHO cells transiently expressing human orexin receptor type 2 and apoaequorin; relative percentage of luminescence for the luminescence (100%) of Orexin A (100 μM)

Before answering, review these 2 worked examples.
{"compound": "CCN1CCN(c2ccccc2NC(=O)N2CCC(c3cc(OC)cc(OC)c3)CC2)CC1 [Example 3]", "readoutKind": "Agonist Activity (%)", "result": "27%"}
{"compound": "Cc1noc(C2(F)CCN(C(=O)Nc3ccccc3N3CCN(C(C)C)CC3)CC2)n1 [Example 164]", "readoutKind": "Agonist Activity (%)", "result": "128%"}

Now consider a different compound.
*Q* Quick check: Agonist Activity (%) on Human orexin receptor type 2 (Homo sapiens, UniProt O43614), item CCOc1cccc(C2CCN(C(C)C)CC2)c1NC(=O)N1CCC(c2ccc(C)cc2)CC1 [Example 127] ?
*A* 145%

---

- systemUnderTest: Human orexin receptor type 2 (Homo sapiens, UniProt O43614)
- testName: Test Example 1: agonist activity for orexin receptor type 2 (aequorin luminescence, intracellular calcium mobilization)
- conditionNotes: compound 10 μm; CHO cells transiently expressing human orexin receptor type 2 and apoaequorin; relative percentage of luminescence for the luminescence (100%) of Orexin A (100 μM)
readoutKind: Agonist Activity (%)
Give the number; % is assumed, so skip it.

{"compound": "Cc1ccc(C2CCN(C(=O)Nc3c(F)cccc3N3CC4CCC(C3)N4C(C)C)CC2)cc1", "systemUnderTest": "Human orexin receptor type 2 (Homo sapiens, UniProt O43614)", "Agonist Activity (%)": 40}

*Q* // lookup Agonist Activity (%) for CC(C)[C@H]1CO[C@H](c2cccc(Cl)c2NC(=O)N2CCC(C)(c3noc(C4CC4)n3)CC2)CN1 (racemic)
*A* 183

*Q* // lookup Agonist Activity (%) for CC(C)N1CCN(c2ccccc2NC(=O)N2CCC(C)(c3ccccc3)CC2)CC1
*A* 156

---

- systemUnderTest: Human orexin receptor type 2 (Homo sapiens, UniProt O43614)
- testName: Test Example 1: agonist activity for orexin receptor type 2 (aequorin luminescence, intracellular calcium mobilization)
- conditionNotes: compound 10 μm; CHO cells transiently expressing human orexin receptor type 2 and apoaequorin; relative percentage of luminescence for the luminescence (100%) of Orexin A (100 μM)
readoutKind: Agonist Activity (%)
Give the number; % is assumed, so skip it.

Before answering, review these 6 worked examples.
{"compound": "CC(C)N1CC=C(c2cccc(F)c2NC(=O)N2CCC(C)(c3noc(C4CC4)n3)CC2)CC1 [Example 44]", "unitOfMeasurement": "%", "Agonist Activity (%)": 143}
{"compound": "Cc1ccc(C2(C)CCN(C(=O)Nc3c(Cl)cccc3C3CCN(C(C)C)CC3)CC2)cc1 [Example 148]", "unitOfMeasurement": "%", "Agonist Activity (%)": 176}
{"compound": "Cc1ccc(C2(C)CCN(C(=O)Nc3c(Cl)cccc3C3=CCN(C(C)C)CC3)CC2)cc1 [Example 147]", "unitOfMeasurement": "%", "Agonist Activity (%)": 167}
{"compound": "CC(CF)N1CC=C(c2cccc(Cl)c2NC(=O)N2CCC(C)(c3noc(C4CC4)n3)CC2)CC1 (centres unmarked) [Example 142]", "unitOfMeasurement": "%", "Agonist Activity (%)": 130}
{"compound": "CC(C)N1CC=C(c2cccc(Cl)c2NC(=O)N2CCC(C)(c3noc(C4CC4)n3)CC2)CC1 [Example 130]", "unitOfMeasurement": "%", "Agonist Activity (%)": 142}
{"compound": "CC(C)N1CCN(c2cccc(F)c2NC(=O)N2CCC(C)(c3noc(C4CCCC4)n3)CC2)CC1 [Example 73]", "unitOfMeasurement": "%", "Agonist Activity (%)": 141}

*Q* Quick check: Agonist Activity (%) on Human orexin receptor type 2 (Homo sapiens, UniProt O43614), item COC1(c2nc(C3(C)CCN(C(=O)Nc4c(Cl)cccc4N4CCN(C(C)C)CC4)CC3)no2)CC1 [Example 108] ?
*A* 157

*Q* Quick check: Agonist Activity (%) on Human orexin receptor type 2 (Homo sapiens, UniProt O43614), item CC(C)c1ccc(-c2cccc(Cl)c2NC(=O)N2CCC(C)(c3cc(C4CC4)on3)CC2)cn1 [Example 69] ?
*A* 129
